- TARGET OF ASSAY: human P2X4 (Homo sapiens, UniProt Q99571)
- Sequence (Q99571 1-388): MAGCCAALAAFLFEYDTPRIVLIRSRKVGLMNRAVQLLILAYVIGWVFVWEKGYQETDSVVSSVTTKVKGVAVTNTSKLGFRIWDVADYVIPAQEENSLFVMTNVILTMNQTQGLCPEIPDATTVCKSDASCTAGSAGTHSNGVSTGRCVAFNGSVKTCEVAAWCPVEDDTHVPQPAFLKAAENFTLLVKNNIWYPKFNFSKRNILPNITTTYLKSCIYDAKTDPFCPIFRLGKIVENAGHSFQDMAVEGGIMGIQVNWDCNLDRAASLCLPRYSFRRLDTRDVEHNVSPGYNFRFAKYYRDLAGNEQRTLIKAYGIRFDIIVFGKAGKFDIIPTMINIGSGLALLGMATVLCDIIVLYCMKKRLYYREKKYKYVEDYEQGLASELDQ
- MEASUREMENT NOTES: Human P2X4 HEK Cell FLIPR Assay
- STATED CONDITIONS: HEK293 cells, agonist Bz-ATP at EC80; individual values listed where some fall outside detection range
READOUT TYPE: IC50 (µM)

Answered examples (3):
structure_notation=N#Cc1cnn(-c2ccc(NC(=O)Cc3cccc(Cl)c3)cc2S(N)(=O)=O)c1 result=0.18
structure_notation=N#Cc1cnn(-c2ccc(NC(=O)Cc3cc(F)c(F)cc3Cl)cc2S(N)(=O)=O)c1 result=0.073
structure_notation=NS(=O)(=O)c1cc(NC(=O)Cc2cccc(Cl)c2)ccc1-c1ccccc1 result=0.507

1. Cc1cn(-c2ccc(NC(=O)Cc3ccccc3Cl)cc2S(N)(=O)=O)c(C)n1
2. NS(=O)(=O)c1cc(NC(=O)Cc2cc(F)ccc2Cl)ccc1-n1cc(F)cn1
3. N#Cc1cnn(-c2ccc(NC(=O)Cc3ccccc3[N+](=O)[O-])cc2S(N)(=O)=O)c1
4. NS(=O)(=O)c1cc(NC(=O)Cc2ccccc2F)ccc1-n1cc(-c2ccncn2)cn1
Query: Falling order of IC50, please. Please write the labels in the order that was asked for.
Reply: 4, 1, 3, 2

---

- TARGET OF ASSAY: human P2X4 (Homo sapiens)
- Sequence (Q99571 1-388): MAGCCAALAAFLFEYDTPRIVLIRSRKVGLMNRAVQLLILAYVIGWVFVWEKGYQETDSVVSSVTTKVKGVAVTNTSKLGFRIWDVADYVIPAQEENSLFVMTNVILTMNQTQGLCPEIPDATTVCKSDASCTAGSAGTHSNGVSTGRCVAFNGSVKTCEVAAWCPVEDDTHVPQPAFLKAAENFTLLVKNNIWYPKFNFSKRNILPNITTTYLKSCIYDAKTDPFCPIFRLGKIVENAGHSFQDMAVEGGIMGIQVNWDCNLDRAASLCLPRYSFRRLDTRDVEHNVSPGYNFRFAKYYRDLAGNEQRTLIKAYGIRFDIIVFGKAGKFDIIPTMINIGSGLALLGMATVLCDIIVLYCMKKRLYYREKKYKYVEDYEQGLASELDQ
- MEASUREMENT NOTES: Human P2X4 HEK Cell FLIPR Assay
- Assay type: cell-based
- STATED CONDITIONS: HEK293, HEK293 cells, agonist Bz-ATP at EC80; percentage of maximal inhibition; read-out: Human P2X4 HEK Cells (FLIPR Assay) avg Efficacy [%]
READOUT TYPE: Emax (%)

molecule="NS(=O)(=O)c1cc(NC(=O)Cc2ccccc2OC(F)F)ccc1-n1cc(C(F)(F)F)cn1 [Example 125]" target_of_assay="human P2X4 (Homo sapiens)" display_unit=% result=86

I. Cc1cc(C(F)(F)F)nn1-c1ccc(NC(=O)Cc2ccccc2Cl)cc1S(N)(=O)=O [Example 15]
II. NS(=O)(=O)c1cc(NC(=O)Cc2cccc(F)c2)ccc1-n1cc(Br)cn1 [Example 65]
Query: Kindly compare I with II and tell me which has the lower Emax figure. Bench note: the answer is the label of the chosen record.
Reply: II

a. NS(=O)(=O)c1cc(NC(=O)Cc2ccc(F)cc2Cl)ccc1-n1cc(C(F)(F)F)cn1 [Example 127]
b. CC(C)Nc1ncc(-c2ccc(NC(=O)Cc3ccccc3Cl)cc2S(N)(=O)=O)cn1 [Example 310]
Query: Between a and b , which one shows the larger Emax value? Lab note: record the label of whichever item you select.
Reply: a
(a: 85%, b: 59%)

---

- TARGET OF ASSAY: human P2X4 (Homo sapiens, UniProt Q99571)
- Sequence (Q99571 1-388): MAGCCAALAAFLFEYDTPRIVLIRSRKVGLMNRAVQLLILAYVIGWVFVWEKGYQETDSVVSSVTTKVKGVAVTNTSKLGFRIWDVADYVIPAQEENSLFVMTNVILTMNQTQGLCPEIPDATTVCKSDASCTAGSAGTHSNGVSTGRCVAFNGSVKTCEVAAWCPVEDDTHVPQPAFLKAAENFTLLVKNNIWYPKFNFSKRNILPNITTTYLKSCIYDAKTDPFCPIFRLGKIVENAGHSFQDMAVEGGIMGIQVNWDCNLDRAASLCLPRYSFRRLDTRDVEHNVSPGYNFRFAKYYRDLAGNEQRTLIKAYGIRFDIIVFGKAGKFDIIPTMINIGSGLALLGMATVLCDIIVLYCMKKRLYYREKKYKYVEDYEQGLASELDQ
- MEASUREMENT NOTES: Human P2X4 HEK Cell FLIPR Assay
- Format: cell-based
- STATED CONDITIONS: HEK293, HEK293 cells, agonist Bz-ATP at EC80; percentage of maximal inhibition; read-out: Human P2X4 HEK Cells (FLIPR Assay) avg Efficacy [%]
- Method: HEK293 cells stably expressing human P2X4 were plated in poly-D-lysine-coated 384-well plates at a seeding density of 30000 cells/well and incubated overnight. P2X4 function was assessed by measuring intracellular calcium changes using the calcium-chelating dye Fluo8-AM (Molecular Devices) on a fluorescent imaging plate reader (FLEX/FLIPR station; Molecular Devices). […] The EC80 value of Bz-ATP was determined each assay day prior to compound profiling. […]
READOUT TYPE: Emax (%)

For orientation, consider the following solved cases.
structure_notation=Cn1cc(-c2ccc(NC(=O)Cc3cccc(F)c3Cl)cc2S(N)(=O)=O)cn1 display_unit=% result=98
structure_notation=NS(=O)(=O)c1cc(NC(=O)Cc2cccc(F)c2F)ccc1-n1cc(F)cn1 display_unit=% result=86
structure_notation=N#Cc1cnn(-c2ccc(NC(=O)C(F)(F)c3ccccc3Cl)cc2S(N)(=O)=O)c1 display_unit=% result=108

1. Cc1ccc(F)c(CC(=O)Nc2ccc(-n3cc(C#N)cn3)c(S(N)(=O)=O)c2)c1Cl
2. COc1ccccc1CC(=O)Nc1ccc(-n2cnc(C(F)(F)F)n2)c(S(N)(=O)=O)c1
3. Cc1cn(-c2ccc(NC(=O)Cc3ccccc3Cl)cc2S(N)(=O)=O)nc1C(F)(F)F
Query: Hello, I need these entries ordered by Emax, highest reading first. Thanks! Show the ranking through the labels, in the order asked for.
Reply: 1, 2, 3
(1: 98%, 2: 52%, 3: 26%)

---

- TARGET OF ASSAY: human P2X4 (Homo sapiens, UniProt Q99571)
- Sequence (Q99571 1-388): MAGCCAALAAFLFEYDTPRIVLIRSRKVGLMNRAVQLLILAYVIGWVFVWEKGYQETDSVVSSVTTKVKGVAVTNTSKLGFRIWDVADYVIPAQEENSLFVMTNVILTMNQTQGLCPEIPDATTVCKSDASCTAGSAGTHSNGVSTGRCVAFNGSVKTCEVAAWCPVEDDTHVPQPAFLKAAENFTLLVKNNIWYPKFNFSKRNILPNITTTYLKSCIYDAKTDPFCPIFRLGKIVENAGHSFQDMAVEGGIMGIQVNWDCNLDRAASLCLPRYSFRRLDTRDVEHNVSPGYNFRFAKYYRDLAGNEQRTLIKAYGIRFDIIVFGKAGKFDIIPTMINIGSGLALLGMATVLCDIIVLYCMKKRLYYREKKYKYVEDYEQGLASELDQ
- MEASUREMENT NOTES: Human P2X4 HEK Cell FLIPR Assay
- STATED CONDITIONS: HEK293 cells, agonist Bz-ATP at EC80; individual values listed where some fall outside detection range
pIC50: −log10 of the molar value.
READOUT TYPE: pIC50

structure_notation=NS(=O)(=O)c1cc(NC(=O)Cc2ccccc2Br)ccc1-c1cncc(C(F)(F)F)c1 result=6.87
structure_notation=Cc1noc(C)c1-c1ccc(NC(=O)Cc2ccccc2Cl)cc1S(N)(=O)=O result=6.29
structure_notation=NS(=O)(=O)c1cc(NC(=O)Cc2ccccc2Cl)ccc1-n1cc(CNCC(F)F)cn1 result=6.40
structure_notation=NS(=O)(=O)c1cc(NC(=O)Cc2cc(F)cc(F)c2)ccc1-c1cncc(C(F)(F)F)c1 result=7.12
structure_notation=CC(=O)c1cnn(-c2ccc(NC(=O)Cc3ccccc3Cl)cc2S(N)(=O)=O)c1 result=7.09

P. NS(=O)(=O)c1cc(NC(=O)Cc2ccccc2F)ccc1-n1ccc(C2CC2)n1
Q. N#Cc1cnn(-c2ccc(NC(=O)Cc3ccc(F)cc3)cc2S(N)(=O)=O)c1
Query: Which entry shows the lesser value of pIC50 here, P or Q ? Answer format: the label of the selected item.
Reply: P
